Each recorded value in this set is attributed to paper PMC12040169.

protocol_details: in vitro
condition_description: human, hela cells, % viability
Kindly supply the reported viability at 28.5 h, 10 µM values for the records listed here.
Note: unit % is implicit; provide only the numeric part.

[in] Need viability at 28.5 h, 10 µM, item Cc1c(S(=O)(=O)NC(C)CCCC(C)(C)O)sc2ccc(Cl)cc12 (stereo not shown)
[out] 93.5

[in] Need viability at 28.5 h, 10 µM, item CCOC(=O)C1=NN(C(=O)c2ccc(Cl)cc2)C(O)(C(C)(C)C)C1 (stereo not shown)
[out] 86

[in] Need viability at 28.5 h, 10 µM, item `c1ccc(N2CCN(c3cccc(-c4cc5ccccc5o4)n3)CC2)nc1`
[out] 107

[in] Need viability at 28.5 h, 10 µM, item `CS(=O)(=O)N1CC2(CCN(Cc3ccc([N+](=O)[O-])cc3)CC2)c2ccccc21`
[out] 104

[in] Need viability at 28.5 h, 10 µM, item `O=C(NCCc1c[nH]cn1)Nc1cccc(C(F)(F)F)c1`
[out] 105

[in] Need viability at 28.5 h, 10 µM, item O=C1NC2(CCc3ccccc31)CCN(C/C=C/c1cccnc1)C2 (stereo not shown)
[out] 86.2

[in] Need viability at 28.5 h, 10 µM, item CCOC(=O)CCCCNC(O)C(Cl)(Cl)Cl (stereo not shown) [CBK261003C]
[out] 106

[in] Need viability at 28.5 h, 10 µM, item `CCC(C)(C)c1ccc(S(=O)(=O)NCc2ccc(C(F)(F)F)cc2)cc1`
[out] 107

[in] Need viability at 28.5 h, 10 µM, item `Cc1cccc(C(=O)NCc2nnc(SCC(=O)N3CCOCC3)n2C)c1`
[out] 95.3

[in] Need viability at 28.5 h, 10 µM, item `O=C(Nc1ccc(Sc2ccc([N+](=O)[O-])cc2)cc1)c1ccc2c(c1)C(=O)N(c1ccccc1-c1ccccc1)C2=O`
[out] 77.1

[in] Need viability at 28.5 h, 10 µM, item CN(C)CCN1C(=O)C(O)=C(C(=O)c2ccco2)C1c1ccc([N+](=O)[O-])cc1 (stereo not shown)
[out] 109

[in] Need viability at 28.5 h, 10 µM, item O=C(O)CC(CC(=O)N1CCN(Cc2ccc3c(c2)OCO3)CC1)c1ccccc1 (stereo not shown)
[out] 96

[in] Need viability at 28.5 h, 10 µM, item CS(=O)(=O)N1CCCC(C(=O)Nc2cccc3cccnc23)C1 (stereo not shown)
[out] 90.8

[in] Need viability at 28.5 h, 10 µM, item `O=C(CSc1ccc(Cl)cc1)Nc1ccc(CN2CCOCC2)cc1`
[out] 89

[in] Need viability at 28.5 h, 10 µM, item `CCCCN(C)c1c(CC)nc2ccc(C(=O)N3CCNC(=O)C3)cn12`
[out] 87.9

[in] Need viability at 28.5 h, 10 µM, item CC(C)OC(=O)Cc1nc(CN2CCc3sccc3C2C)cs1 (stereo not shown)
[out] 85.3

[in] Need viability at 28.5 h, 10 µM, item `O=C(CC1CCCCC1)N1CCN(c2ncccn2)CC1`
[out] 102

[in] Need viability at 28.5 h, 10 µM, item `O=C(CN1C(=O)c2ccc([N+](=O)[O-])cc2C1=O)Nc1ccc(O)cc1C(=O)O`
[out] 95.5

[in] Need viability at 28.5 h, 10 µM, item `Cc1c(Br)c(C(F)(F)F)nn1CC(=O)Nc1cc(C(F)(F)F)ccc1Cl`
[out] 92.5

[in] Need viability at 28.5 h, 10 µM, item O=C1CC(c2ccco2)CC(=O)C1=CNCCN1CCNCC1 (stereo not shown)
[out] 99.7

[in] Need viability at 28.5 h, 10 µM, item `COc1ccc(C(C)C)cc1-c1cn2ccnc2c(NC2CCOCC2)n1`
[out] 94

[in] Need viability at 28.5 h, 10 µM, item `O=C(Cc1nc(-c2ccncc2)n[nH]1)NC1CCCCC1`
[out] 110

[in] Need viability at 28.5 h, 10 µM, item `O=C(NCCc1cccs1)Nc1ccc(Cl)cc1C(F)(F)F`
[out] 86.1

[in] Need viability at 28.5 h, 10 µM, item CCn1c(C)nc2cc(NC(=O)CC3CCCCO3)ccc21 (stereo not shown)
[out] 98.2

[in] Need viability at 28.5 h, 10 µM, item `Cc1cc(C(=O)N(Cc2ccccc2)c2ccccc2)no1`
[out] 94.2

[in] Need viability at 28.5 h, 10 µM, item `CCCNc1cc(C)nc2cc(-c3ccc(OC)c(OC)c3)nn12`
[out] 88.2

[in] Need viability at 28.5 h, 10 µM, item `Nc1ccc(-c2ccc3c(c2)OCCCO3)c2ccccc12`
[out] 87.9

[in] Need viability at 28.5 h, 10 µM, item `COc1cc(C(=O)N2CCC3(CC2)CC(=O)c2ccc(-c4ccccc4)cc2O3)cc(OC)c1C`
[out] 89.9

[in] Need viability at 28.5 h, 10 µM, item CCOc1n[s+]([O-])nc1Nc1cc(Cl)cc(Cl)c1 (stereo not shown)
[out] 101

[in] Need viability at 28.5 h, 10 µM, item `COc1cc2c(cc1OC)CN(C(=O)c1ccc3[nH]cnc3c1)CC2`
[out] 52.8

[in] Need viability at 28.5 h, 10 µM, item `Cc1ccc(S(=O)(=O)Nc2nc(C)c(NC(=O)Nc3ccc(Cl)cc3Cl)s2)cc1`
[out] 85.8

[in] Need viability at 28.5 h, 10 µM, item CC1=CC(C)C(C(=O)O)C(C(=O)Nc2ccccc2)C1 (stereo not shown)
[out] 90.4

[in] Need viability at 28.5 h, 10 µM, item O=S(=O)(N1CCCCCC1)N1CCNCC1 [CBK269219C]
[out] 96.5

[in] Need viability at 28.5 h, 10 µM, item `CCN(CC)C(=O)c1cn(CCC#N)nc1-c1cccc(OC)c1`
[out] 92.6

[in] Need viability at 28.5 h, 10 µM, item O=C1NCCNC(=O)C2(C/C=C/COc3ccccc31)CCCN(Cc1cscn1)C2 (stereo not shown)
[out] 92.2

[in] Need viability at 28.5 h, 10 µM, item `NC(=O)[C@@H]1C[C@@H](O)[C@H](O)[C@H]2[C@@H]1N(c1ccc(Cl)cc1)C(=S)N2CC1CCCCC1`
[out] 86.8

[in] Need viability at 28.5 h, 10 µM, item `COc1ccc(C(=O)NC(=N)NCCc2c[nH]c3ccccc23)cc1`
[out] 111
